Cited source for all entries: ChEMBL document CHEMBL1133089

target: Neuronal acetylcholine receptor; alpha4/beta2 (Rattus norvegicus, UniProt P09483+P12390); assay: Binding affinity in rat forebrain against Nicotinic acetylcholine receptor alpha4-beta2
Sequence (P09483 whole entry): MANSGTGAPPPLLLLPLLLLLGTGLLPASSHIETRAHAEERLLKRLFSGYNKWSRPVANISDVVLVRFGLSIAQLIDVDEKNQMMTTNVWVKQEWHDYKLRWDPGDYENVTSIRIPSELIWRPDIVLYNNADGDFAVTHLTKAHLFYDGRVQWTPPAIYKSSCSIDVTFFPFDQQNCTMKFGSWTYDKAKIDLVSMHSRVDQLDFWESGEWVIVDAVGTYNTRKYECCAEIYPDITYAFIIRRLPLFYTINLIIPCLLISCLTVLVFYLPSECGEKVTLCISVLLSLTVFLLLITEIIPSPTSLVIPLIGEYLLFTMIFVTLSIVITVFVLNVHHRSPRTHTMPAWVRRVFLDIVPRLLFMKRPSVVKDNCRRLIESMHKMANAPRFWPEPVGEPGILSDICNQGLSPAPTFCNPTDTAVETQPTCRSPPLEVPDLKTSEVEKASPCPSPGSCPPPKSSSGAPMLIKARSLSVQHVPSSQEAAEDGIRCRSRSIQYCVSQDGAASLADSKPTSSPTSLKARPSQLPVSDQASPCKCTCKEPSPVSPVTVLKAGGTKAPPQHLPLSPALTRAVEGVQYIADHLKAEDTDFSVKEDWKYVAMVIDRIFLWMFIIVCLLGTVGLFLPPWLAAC
Sequence (P12390 whole entry): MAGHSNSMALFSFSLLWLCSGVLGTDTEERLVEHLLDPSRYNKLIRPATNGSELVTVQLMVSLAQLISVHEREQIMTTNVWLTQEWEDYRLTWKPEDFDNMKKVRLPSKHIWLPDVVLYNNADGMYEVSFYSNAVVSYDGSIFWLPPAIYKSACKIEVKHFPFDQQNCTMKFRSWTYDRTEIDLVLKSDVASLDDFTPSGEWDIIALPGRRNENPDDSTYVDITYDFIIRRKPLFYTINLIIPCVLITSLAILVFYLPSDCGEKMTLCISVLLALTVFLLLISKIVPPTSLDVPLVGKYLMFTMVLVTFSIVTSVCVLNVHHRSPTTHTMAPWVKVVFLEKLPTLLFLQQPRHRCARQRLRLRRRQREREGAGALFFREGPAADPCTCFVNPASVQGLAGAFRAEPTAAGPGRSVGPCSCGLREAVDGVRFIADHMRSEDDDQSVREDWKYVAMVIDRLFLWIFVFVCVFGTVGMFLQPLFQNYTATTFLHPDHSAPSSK
Experimental endpoint: Ki (µM)
Field: numeric (µM). Do not append units.

Ki reading for CCN1CC2(CN3CCC2CC3)OC1=O (stereo unspecified) : 0.17

###

biological target: Neuronal acetylcholine receptor subunit alpha-7 (Rattus norvegicus, UniProt Q05941); test: Binding affinity in rat hippocampi against Nicotinic acetylcholine receptor alpha7; assay type: tissue-based, Hippocampus
Sequence (Q05941 whole entry): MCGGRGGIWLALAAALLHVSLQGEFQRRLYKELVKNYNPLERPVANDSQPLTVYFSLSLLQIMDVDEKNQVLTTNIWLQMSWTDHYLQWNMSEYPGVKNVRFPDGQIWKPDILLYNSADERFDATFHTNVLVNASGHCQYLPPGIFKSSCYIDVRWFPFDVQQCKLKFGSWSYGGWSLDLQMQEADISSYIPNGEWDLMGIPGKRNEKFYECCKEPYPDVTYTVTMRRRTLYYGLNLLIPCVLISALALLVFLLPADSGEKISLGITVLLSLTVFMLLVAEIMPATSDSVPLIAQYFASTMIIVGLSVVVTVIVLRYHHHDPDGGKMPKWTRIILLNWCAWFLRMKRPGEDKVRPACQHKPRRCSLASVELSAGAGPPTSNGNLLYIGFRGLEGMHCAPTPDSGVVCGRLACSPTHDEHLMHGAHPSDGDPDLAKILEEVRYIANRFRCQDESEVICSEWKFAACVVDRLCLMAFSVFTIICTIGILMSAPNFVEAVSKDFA
Experimental endpoint: Ki (µM)
Field: numeric (µM). Do not append units.

Ki reading for CCN1CC2(CN3CCC2CC3)OC1=O (stereo not given) : 0.69

Ki reading for O=C1CC2(CN1)CN1CCC2CC1 (stereo not given) : 4

###

target: Neuronal acetylcholine receptor subunit alpha-7 (Rattus norvegicus, UniProt Q05941); experiment: Binding affinity in rat hippocampi against Nicotinic acetylcholine receptor alpha7
Experimental endpoint: Ki

Ki reading for CN1C(=O)NCC12CN1CCC2CC1 (stereo not drawn) : > 13 µM

Ki reading for O=C1NC2(CO1)CN1CCC2CC1 (stereo not drawn) : > 4.3 µM

Ki reading for O=C1NCC2(CN3CCC2CC3)N1 (stereo not drawn) : > 13 µM
